Target: GHSR1a receptor (Homo sapiens, UniProt Q92847)
Construct: expressed in transfected cells; host or cells: HEK293 (membranes)
Sequence (Q92847 whole entry): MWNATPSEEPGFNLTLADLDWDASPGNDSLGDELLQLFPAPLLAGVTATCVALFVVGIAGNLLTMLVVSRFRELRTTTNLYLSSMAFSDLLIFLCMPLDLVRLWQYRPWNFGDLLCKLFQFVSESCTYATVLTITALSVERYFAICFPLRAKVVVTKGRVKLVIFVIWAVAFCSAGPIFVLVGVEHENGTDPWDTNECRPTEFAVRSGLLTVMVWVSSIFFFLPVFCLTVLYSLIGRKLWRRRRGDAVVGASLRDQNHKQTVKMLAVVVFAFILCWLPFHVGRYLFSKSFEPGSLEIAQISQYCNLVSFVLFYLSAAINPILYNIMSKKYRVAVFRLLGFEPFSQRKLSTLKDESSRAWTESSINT
Assay: 125I-Ghrelin binding assay
Details: Binding pKi, displacement of 125I-ghrelin (0.053 nM), membranes of HEK293 cells transfected with GHSR1a; Cheng-Prussoff; '—' not defined
pKi: −log10 of the molar value.
Classification field: enter true (1) for pKi values not below 7, false (0) for values below it.

- COMPOUND: "COc1cccc2c(C(=O)c3ccccc3)cn(CCCN3CCC(c4nc5ccccc5s4)CC3)c12"
  ASSIGNED CLASS: "true (1)"
- COMPOUND: "COc1cccc2c(C(=O)NCc3cccc(Cl)c3)cn(CCCN3CCC(CCOc4ccc(Cl)cc4)CC3)c12"
  ASSIGNED CLASS: "false (0)"
- COMPOUND: "COc1cccc2c(C(=O)NCc3cccc(C)c3)cn(CCCN3CCN(CCOc4ccccc4)CC3)c12"
  ASSIGNED CLASS: "true (1)"
- COMPOUND: "COc1cccc2c(C(=O)NCc3cccc(Cl)c3)cn(CCCN3C4CCC3CC(CC(=O)c3ccccc3)C4)c12 (stereo not drawn)"
  ASSIGNED CLASS: "false (0)"
- COMPOUND: "Cc1cccc(CNC(=O)c2cn(CCCN3C4CCC3CC(CCc3ccccc3)C4)c3ccccc23)c1 (stereo not drawn)"
  ASSIGNED CLASS: "false (0)"
- COMPOUND: "COc1cccc2c(C(=O)NCc3cccc(C)c3)cn(CCCN3C4CCC3CC(Oc3ccc(Cl)cc3)C4)c12 (stereo not drawn)"
  ASSIGNED CLASS: "true (1)"
- COMPOUND: "CCCCCC1CC2CCC(C1)N2CCCn1cc(C(C)=O)c2ccccc21 (stereo not drawn)"
  ASSIGNED CLASS: "false (0)"

---

Items are presented alongside their recorded Ki.
Target: GHSR1a receptor (Homo sapiens, UniProt Q92847)
Construct: expressed in transfected cells; host or cells: HEK293 (membranes)
Assay: 125I-Ghrelin binding assay
Conditions: displacement of 125I-ghrelin (0.053 nM), membranes of HEK293 cells transfected with GHSR1a; Cheng-Prussoff; '—' not defined; read-out: Binding pKi (converted)

- MOLECULE: "CCCCCC=C1CCN(CCCn2cc(C(C)=O)c3ccccc32)CC1"
  Ki, nM: 200
- MOLECULE: "COc1cccc2c(C(=O)Cc3ccccc3)cn(CCCN3CCN(CCOc4ccc(Cl)cc4)CC3)c12"
  Ki, nM: 3160
- MOLECULE: "CC(=O)c1cn(CCCN2C3CCC2CC(Oc2ccccc2Cl)C3)c2c(C#N)cccc12 (stereo not shown)"
  Ki, nM: 200
- MOLECULE: "CC(=O)c1cn(CCCN2CCC(Oc3cccc(Cl)c3)CC2)c2c(C#N)cccc12"
  Ki, nM: 158
- MOLECULE: "COc1cccc2c(C(C)=O)cn(CCCN3CCN(c4cccc(Cl)c4)CC3)c12"
  Ki, nM: 501
- MOLECULE: "O=C(c1cn(CCCN2C3CCC2CC(CCc2ccc(Cl)cc2)C3)c2ncccc12)C(F)(F)F (stereo not shown)"
  Ki, nM: 251
- MOLECULE: "CC(=O)c1cn(CCCN2C3CCC2CC(CCc2ccc(Cl)cc2)C3)c2ncccc12 (stereo not shown)"
  Ki, nM: 398
- MOLECULE: "CC(=O)c1cn(CCCN2C3CCC2CC(OCC2CC2)C3)c2ccccc12 (stereo not shown)"
  Ki, nM: 15800
- MOLECULE: "COc1cccc2c(C#N)cn(CCCN3C4CCC3CC(CC(=O)c3ccc(Cl)cc3)C4)c12 (stereo not shown)"
  Ki, nM: 79.4
- MOLECULE: "COc1cccc2c(C(C)=O)cn(CCCN3C4CCC3CC(Oc3ccc(Cl)cc3)C4)c12 (stereo not shown)"
  Ki, nM: 501

---

Items are presented alongside their recorded Ki.
Target: GHSR1a receptor (Homo sapiens, UniProt Q92847)
Construct: expressed in transfected cells; host or cells: HEK293 (membranes)
Assay: 125I-Ghrelin binding assay
Details: displacement of 125I-ghrelin (0.053 nM), membranes of HEK293 cells transfected with GHSR1a; Cheng-Prussoff; '—' not defined; read-out: Binding pKi (converted)

- COMPOUND: "COc1cccc2c(C(C)=O)cn(CCCN3CCC(Oc4ccccc4Cl)CC3)c12"
  Ki / nM: 794
- COMPOUND: "COc1cccc2c(C(=O)Cc3ccccc3)cn(CCCN3CCCN(Cc4ccc(F)cc4)CC3)c12"
  Ki / nM: 7.94
- COMPOUND: "CCc1cccc2c(C(C)=O)cn(CCCN3CCC(CCOc4ccc(Cl)cc4)CC3)c12"
  Ki / nM: 501
- COMPOUND: "CC(=O)c1cn(CCCN2C3CCC2CC(CCc2ccccc2)C3)c2c(C#N)cccc12 (stereo not drawn)"
  Ki / nM: 39.8
- COMPOUND: "CC(=O)c1c(C)n(CCCN2C3CCC2CC(CCc2ccc(Cl)cc2)C3)c2c(Br)cccc12 (stereo not drawn)"
  Ki / nM: 316
- COMPOUND: "CC(=O)c1c(C)n(CCCN2CCCN(Cc3ccccc3Cl)CC2)c2c(Br)cccc12"
  Ki / nM: 398
- COMPOUND: "COc1cccc2c(C(=O)c3ccccc3)cn(CCCN3CCN(CCOc4ccccc4)CC3)c12"
  Ki / nM: 251
- COMPOUND: "CC(=O)c1c(C)n(CCCN2C3CCC2CC(Oc2ccc(F)cc2)C3)c2c(Br)cccc12 (stereo not drawn)"
  Ki / nM: 1580
- COMPOUND: "COc1cccc2c(C(=O)c3ccccc3)cn(CCCNCCOc3ccccc3)c12"
  Ki / nM: 158

---

Target: UniProt Q92847
Assay: Receptor Selection and Amplification Technology (R-SAT) assay
Format: cell-based
Set-up: expressed in transfected cells; host or cells: NIH3T3
Details: percent inhibition at saturating ligand, normalized to reference ligand Substance P analog = 100%; read-out: RSAT Eff(%)
MEASURED ENDPOINT: Emax (%)

- COMPOUND: "COc1cccc2c(C#N)cn(CCCN3CCC(c4nc(-c5cccnc5)no4)CC3)c12"
  MEASURED ENDPOINT: "Emax"
  MEASUREMENT UNIT: "%"
  REPORTED VALUE: 23
- COMPOUND: "COc1cccc2c(C(C)=O)cn(CCCN3CCC(Cc4ccccc4)CC3)c12"
  MEASURED ENDPOINT: "Emax"
  MEASUREMENT UNIT: "%"
  REPORTED VALUE: 116
- COMPOUND: "COc1cccc2c(C(C)=O)cn(CCCN3CCC(N(C)C(C)=O)C3)c12 (centres unmarked)"
  MEASURED ENDPOINT: "Emax"
  MEASUREMENT UNIT: "%"
  REPORTED VALUE: 60
- COMPOUND: "COc1cccc2c(C(C)=O)cn(CC(C)CN3CCC(Oc4cccc(Cl)c4)CC3)c12 (centres unmarked)"
  MEASURED ENDPOINT: "Emax"
  MEASUREMENT UNIT: "%"
  REPORTED VALUE: 102
- COMPOUND: "O=C(c1cn(CCCN2C3CCC2CC(CCc2ccccc2)C3)c2ncccc12)C(F)(F)F (centres unmarked)"
  MEASURED ENDPOINT: "Emax"
  MEASUREMENT UNIT: "%"
  REPORTED VALUE: 104

---

Items are presented alongside their recorded IC50.
Biological target: Ghrelin receptor (Homo sapiens)
Experiment: Aeg
Type: cell-based
MEASURED ENDPOINT: IC50

- COMPOUND STRUCTURE STRING: "COc1cccc2c(C(=O)c3ccccc3)cn(CCCN3CCC(c4nc5ccccc5s4)CC3)c12"
  ASSAYED TARGET: "Ghrelin receptor (Homo sapiens)"
  REPORTED VALUE: "63.1 nM"
- COMPOUND STRUCTURE STRING: "COc1cccc2c(C(=O)C3CC3)cn(CCCN3CCC(Oc4ccc(F)cc4)CC3)c12"
  ASSAYED TARGET: "Ghrelin receptor (Homo sapiens)"
  REPORTED VALUE: "39.8 nM"

---

Molecular target: Ghrelin receptor (Homo sapiens, UniProt Q92847)
Test: Receptor Selection and Amplification Technology (R-SAT) assay
Format: cell-based
Parameters: expressed in transfected cells; host or cells: NIH3T3
Conditions: read-out: RSAT Eff(%)

- MOLECULE: "COc1ccc2c(C(C)=O)cn(CCCN3CCC(c4ccccc4OC)CC3)c2c1"
  Emax / %: 72
- MOLECULE: "COc1cccc2c(C(=O)NCc3cccc(C)c3)cn(CCCN3CCCN(Cc4ccccc4Cl)CC3)c12"
  Emax / %: 119
- MOLECULE: "COc1cccc2c(C(=O)C3CC3)cn(CCCN3C4CCC3CC(Oc3ccc(F)cc3)C4)c12 (centres unmarked)"
  Emax / %: 131
- MOLECULE: "COc1cccc2c(C(=O)Cc3ccccc3)cn(CCCNCCOc3ccccc3)c12"
  Emax / %: 92
- MOLECULE: "COc1cccc2c(C(=O)Cc3ccccc3)cn(CCCN3CCCN(Cc4ccccc4Cl)CC3)c12"
  Emax / %: 92
